Target: T1, Mcl-1, Q07820
T1 chain: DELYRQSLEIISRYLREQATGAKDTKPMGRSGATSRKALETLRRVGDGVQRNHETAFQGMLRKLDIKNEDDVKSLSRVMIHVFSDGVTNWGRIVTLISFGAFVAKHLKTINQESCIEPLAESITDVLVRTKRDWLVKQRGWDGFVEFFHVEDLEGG
Test: peptide SPOT array, c-Myc-tagged receptor at 1 uM or 100 nM, anti-c-Myc-Cy3
Recorded SPOT signal as a fraction of Bim BH3's signal on the same receptor and array by entry
Quantity kind: SPOT signal as a fraction of Bim BH3's signal on the same receptor and array

[[record]]
binder = "TSQTEGLSRLLRQHAEDLNSGPLSKL [FES]"
test_result = 0.02

[[record]]
binder = "VLSRIEAGRSLKSVADEFGISKSTFY [TIGD7_3eA]"
test_result = 0.02

[[record]]
binder = "QLSKPGAALYDQSIGEGFKEAVQYVL [SOS1]"
test_result = 0.02

[[record]]
binder = "DIARSTLAKIIEDLGVHFLLYVLKEL [UTP20]"
test_result = 0.02

[[record]]
binder = "LSIIYTLVEIFQNIGDTNLADFTAGL [SLC26A4]"
test_result = 0.07


Cited source for all entries: paper PMC4072508
